biological target: ATP-dependent translocase ABCB1 (Homo sapiens, UniProt P08183); assay: TP_TRANSPORTER: transepithelial transport of Rhodamine 123 (basal to apical) in Caco-2R cells; type: functional, cell-based
Sequence (P08183 whole entry): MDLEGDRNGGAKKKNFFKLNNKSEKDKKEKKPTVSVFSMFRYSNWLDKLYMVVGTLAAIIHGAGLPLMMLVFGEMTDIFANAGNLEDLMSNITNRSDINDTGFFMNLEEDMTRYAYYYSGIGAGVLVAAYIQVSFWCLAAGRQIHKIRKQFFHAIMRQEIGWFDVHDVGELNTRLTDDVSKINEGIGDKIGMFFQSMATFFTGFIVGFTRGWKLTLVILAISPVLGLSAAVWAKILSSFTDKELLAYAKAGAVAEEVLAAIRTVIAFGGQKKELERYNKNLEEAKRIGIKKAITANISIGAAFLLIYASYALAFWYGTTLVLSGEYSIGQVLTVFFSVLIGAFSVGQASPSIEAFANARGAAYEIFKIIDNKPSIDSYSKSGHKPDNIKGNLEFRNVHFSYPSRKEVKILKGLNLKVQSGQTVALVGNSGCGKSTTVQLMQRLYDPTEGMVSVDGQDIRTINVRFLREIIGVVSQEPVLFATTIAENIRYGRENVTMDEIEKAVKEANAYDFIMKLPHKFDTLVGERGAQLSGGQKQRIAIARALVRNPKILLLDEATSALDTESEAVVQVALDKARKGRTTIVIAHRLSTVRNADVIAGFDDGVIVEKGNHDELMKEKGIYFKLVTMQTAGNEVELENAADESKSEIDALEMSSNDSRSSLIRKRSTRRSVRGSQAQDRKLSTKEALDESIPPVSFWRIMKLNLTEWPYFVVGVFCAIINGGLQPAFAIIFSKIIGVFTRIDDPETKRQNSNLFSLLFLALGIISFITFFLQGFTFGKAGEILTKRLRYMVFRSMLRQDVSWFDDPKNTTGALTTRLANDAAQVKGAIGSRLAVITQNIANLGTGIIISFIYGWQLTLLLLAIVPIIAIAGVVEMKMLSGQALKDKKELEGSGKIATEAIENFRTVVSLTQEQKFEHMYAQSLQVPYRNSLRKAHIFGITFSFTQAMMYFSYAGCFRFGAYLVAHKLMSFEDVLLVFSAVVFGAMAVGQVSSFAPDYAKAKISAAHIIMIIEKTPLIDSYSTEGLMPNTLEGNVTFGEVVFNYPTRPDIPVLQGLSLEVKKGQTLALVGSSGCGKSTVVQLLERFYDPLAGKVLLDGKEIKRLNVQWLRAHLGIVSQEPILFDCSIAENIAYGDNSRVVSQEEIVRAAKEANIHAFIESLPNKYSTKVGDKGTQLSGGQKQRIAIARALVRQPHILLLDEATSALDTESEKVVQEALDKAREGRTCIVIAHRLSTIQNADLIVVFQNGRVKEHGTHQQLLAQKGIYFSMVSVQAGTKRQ
observation_type: Activity

compound: COC[C@@H]1O[C@H]2O[C@@H]3[C@@H](O)[C@H](O)[C@H](O[C@@H]4[C@@H](O)[C@H](O)[C@H](O[C@H]5[C@H](OC)[C@@H](O)[C@@H](O[C@@H]6[C@@H](O)[C@H](O)[C@H](O[C@@H]7[C@@H](O)[C@H](O)[C@H](O[C@@H]8[C@@H](O)[C@H](O)[C@H](O[C@@H]1[C@@H](O)[C@@H]2O)O[C@H]8COC)O[C@H]7COC)O[C@H]6COC)O[C@@H]5COC)O[C@H]4COC)O[C@H]3COC
reported_result: is not an inhibitor [-]

compound: CCCC(OC(CCC)S(=O)(=O)O)S(=O)(=O)O.OC[C@H]1O[C@@H]2O[C@H]3[C@H](O)[C@@H](O)[C@@H](O[C@H]4[C@H](O)[C@@H](O)[C@@H](O[C@H]5[C@H](O)[C@@H](O)[C@@H](O[C@H]6[C@H](O)[C@@H](O)[C@@H](O[C@H]7[C@H](O)[C@@H](O)[C@@H](O[C@H]8[C@H](O)[C@@H](O)[C@@H](O[C@H]1[C@H](O)[C@H]2O)O[C@@H]8CO)O[C@@H]7CO)O[C@@H]6CO)O[C@@H]5CO)O[C@@H]4CO)O[C@@H]3CO
reported_result: is not an inhibitor [-]

compound: CC(O)COC[C@H]1O[C@@H]2O[C@H]3[C@H](O)[C@@H](O)[C@@H](O[C@H]4[C@H](O)[C@@H](O)[C@@H](O[C@H]5[C@H](O)[C@@H](O)[C@@H](O[C@H]6[C@H](O)[C@@H](O)[C@@H](O[C@H]7[C@H](O)[C@@H](O)[C@@H](O[C@H]8[C@H](O)[C@@H](O)[C@@H](O[C@H]1[C@H](O)[C@H]2O)O[C@@H]8COCC(C)O)O[C@@H]7COCC(C)O)O[C@@H]6COCC(C)O)O[C@@H]5COCC(C)O)O[C@@H]4COCC(C)O)O[C@@H]3COCC(C)O (stereo partly drawn) [2-HYDROXYPROPYL-BETA-CYCLODEXTRIN]
reported_result: is not an inhibitor [-]

Origin of measurements: ChEMBL document CHEMBL2073945
